Record: GI50 reported on K-562 cells.
parameter-measured: GI50 (nM)

molecule: Cc1nn(C(C)C)c2c1C(c1ccc(Cl)cc1F)N(c1cc(C)c3nnc(C)n3c1)C2=O (stereo not shown)
measured-on: K-562 cells
GI50 / nM: 105
--
molecule: CCc1c2c(nn1C1CC1)C(=O)N(c1cc(C)c(=O)n(C)c1)C2c1ccc(Cl)cc1 (stereo not shown)
measured-on: K-562 cells
GI50 / nM: 157
--
molecule: Cc1nn(C(=O)N(C)C)c2c1[C@@H](c1ccc(Cl)cc1)N(c1cc(C)c3nnc(C)n3c1)C2=O
measured-on: K-562 cells
GI50 / nM: 348
--
molecule: Cc1nn(-c2cncn2C)c2c1C(c1ccc(Cl)cc1)N(c1cc(C)c(=O)n(C)c1)C2=O (stereo not shown)
measured-on: K-562 cells
GI50 / nM: 719
--
molecule: Cc1nn(C2CC2)c2c1C(c1ccc(Cl)cc1)N(c1cc(N(C)C(=O)OC(C)(C)C)c3nnc(C)n3n1)C2=O (stereo not shown)
measured-on: K-562 cells
GI50 / nM: 2810

A = Cc1cc(N2C(=O)c3nn(C4CC4)c(C)c3C2c2ccc(Cl)cc2)cn2c(C)nnc12 (stereo not shown)
B = CC(=O)N1CC(n2nc(C)c3c2C(=O)N(c2cc(C)c4nnc(C)n4c2)C3c2ccc(Cl)cc2)C1 (stereo not shown)
INPUT: Higher GI50 between A and B ? Indicate which entry you chose by stating its label.
OUTPUT: B
